Test system UniProt:A0A979GQH9, Kd listed for each of the molecules.
Sequence (A0A979GQH9 entry or part of it): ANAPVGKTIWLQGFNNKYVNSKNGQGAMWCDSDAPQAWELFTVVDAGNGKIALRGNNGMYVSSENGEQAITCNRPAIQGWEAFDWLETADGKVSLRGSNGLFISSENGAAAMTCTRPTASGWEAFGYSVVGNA
property measured: Kd (µM)

(P) OC[C@H]1OC(O)[C@H](O)[C@@H](O)[C@@H]1O (stereo partly drawn) [glucose]
(Q) OC[C@H]1O[C@@H](OC[C@H]2OC(O)[C@H](O)[C@@H](O)[C@@H]2O)[C@H](O)[C@@H](O)[C@@H]1O (stereo partly drawn) [G2, gentiobiose]
(R) OC[C@H]1O[C@@H](O[C@H]2C(O)O[C@H](CO)[C@@H](O)[C@@H]2O)[C@H](O)[C@@H](O)[C@@H]1O (stereo partly drawn) [S2, sophorose]
IN: Which order do these items take when sorted by rising Kd? List them. Please list the labels according to the requested order.
OUT: Q, R, P
(Q: 202 µM, R: 882 µM, P: 1840 µM)
